Data origin: the OligoGym collection

Measured normalised inhibition (eCFP-eYFP dual reporter), listed per entry.
biological target: UBE2M; experiment: reporter assay of Huesken 2005; settings: siRNA; note: test concentration or dose not given here
Oligonucleotides are written 5' to 3', each unit as a sugar letter and its base; * is a phosphorothioate linkage, no mark a phosphodiester; rarer units and linkages stand in square brackets, end groups in braces. Plain capitals give the bases only. d = 2'-deoxy (DNA); r = 2'-OH (RNA)
The answer is to be given in %; state only the numeric part.

>>> meas_value("sense rUrCrArCrCrCrCrArArCrArUrUrGrArCrCrUrCdTdT / antisense rGrArGrGrUrCrArArUrGrUrUrGrGrGrGrUrGrAdTdA")
65.4
>>> meas_value("sense rGrUrCrCrUrUrArCrGrArUrArArArCrUrCrCrAdTdT / antisense rUrGrGrArGrUrUrUrArUrCrGrUrArArGrGrArCdTdG")
76.7

Pending substance:
query: Entry sense rGrUrGrArUrArUrCrArGrCrUrUrCrUrCrArGrAdTdT / antisense rUrCrUrGrArGrArArGrCrUrGrArUrArUrCrArCdAdC , system UBE2M: what normalised inhibition (eCFP-eYFP dual reporter) was measured?; note: test concentration or dose not given here
result: 70.3
